# System Name: isoprenylated protein endoprotease
# Experimental Details: Inhibition of the isoprenylated protein endoprotease by halomethyl ketones (preincubation, 20-fold dilution, Kitz-Wilson)
# Assay type: biochemical, bovine
# Experimental Parameters: read-out: K1
# Procedure: A typical procedure of inhibition is given here to illustrate the details of this procedure. A CHAPSO-solubilized protein preparation (2.5 mg/mL) or a partially […] protein preparation (0.17 mg/mL) was incubated with chloromethyl ketone inhibitors at 37° C. for 30 minutes. Aliquots were removed at timed intervals and diluted with assay buffer E for the solubilized preparation of with assay buffer D for the partially purified protein preparation in 20-fold. […]
pKi: −log10 of the molar value.
Readout Name: pKi

Entry Cc1ccc(S(=O)(=O)N[C@@H](Cc2ccccc2)C(=O)CCl)cc1 has what pKi?
~3.00
